tested on: HCC-2998 colon; assay: NCI tumour cell line growth inhibition, 48 h
METRIC NAME: TGI

| COMPOUND | METRIC NAME | READOUT VALUE |
| --- | --- | --- |
| CC(=O)OCC1OC(SC2=NC(=O)/C(=C/c3ccccc3)S2)C(OC(C)=O)C(OC(C)=O)C1OC(C)=O (stereo not given) | TGI | > 100 µM |
| O=C1/C(=C/c2ccc(Cl)c(Cl)c2)CNC/C1=C\c1ccc(Cl)c(Cl)c1 | TGI | 21.7 µM |
| OCCn1cc(-c2cnc3nnn(Cc4ccc5ncccc5c4)c3n2)cn1 | TGI | > 100 µM |
| Cc1ccc(-c2cc(-c3ccc(C)cc3)nc(N3CCN(CCNc4ccnc5cc(Cl)ccc45)CC3)n2)cc1 | TGI | 16.2 µM |
| CCCCOc1ccc2c(c1)CC[C@@H]1[C@@H]2CC[C@]2(C)C(=O)N(CCCC)C(=O)C[C@@H]12 | TGI | > 100 µM |
| OC(C1CCCCCCCCCC1)C(O)C1CCCCCCCCCC1 (stereo not given) | TGI | > 100 µM |
| CCOC(=O)c1ccccc1SC(C[N+](=O)[O-])c1ccccc1 (stereo not given) | TGI | 3.36 µM |
| COc1cc(C2c3cc(OC)c(OC)c(O)c3C(=O)C3CCC(=O)N32)cc(OC)c1OC (stereo not given) | TGI | > 100 µM |
| O=C1CC(C(COCc2ccccc2)OCc2ccccc2)CC(=O)N1 (stereo not given) | TGI | > 100 µM |
| NC(CCc1ncc(-c2ccccc2)s1)C(=O)O (stereo not given) | TGI | > 100 µM |

Origin of the recorded values: PubChem BioAssay (NCI)
